# subject.of.test: Axl kinase (Homo sapiens (Human))
# Sequence (P30530 26-894): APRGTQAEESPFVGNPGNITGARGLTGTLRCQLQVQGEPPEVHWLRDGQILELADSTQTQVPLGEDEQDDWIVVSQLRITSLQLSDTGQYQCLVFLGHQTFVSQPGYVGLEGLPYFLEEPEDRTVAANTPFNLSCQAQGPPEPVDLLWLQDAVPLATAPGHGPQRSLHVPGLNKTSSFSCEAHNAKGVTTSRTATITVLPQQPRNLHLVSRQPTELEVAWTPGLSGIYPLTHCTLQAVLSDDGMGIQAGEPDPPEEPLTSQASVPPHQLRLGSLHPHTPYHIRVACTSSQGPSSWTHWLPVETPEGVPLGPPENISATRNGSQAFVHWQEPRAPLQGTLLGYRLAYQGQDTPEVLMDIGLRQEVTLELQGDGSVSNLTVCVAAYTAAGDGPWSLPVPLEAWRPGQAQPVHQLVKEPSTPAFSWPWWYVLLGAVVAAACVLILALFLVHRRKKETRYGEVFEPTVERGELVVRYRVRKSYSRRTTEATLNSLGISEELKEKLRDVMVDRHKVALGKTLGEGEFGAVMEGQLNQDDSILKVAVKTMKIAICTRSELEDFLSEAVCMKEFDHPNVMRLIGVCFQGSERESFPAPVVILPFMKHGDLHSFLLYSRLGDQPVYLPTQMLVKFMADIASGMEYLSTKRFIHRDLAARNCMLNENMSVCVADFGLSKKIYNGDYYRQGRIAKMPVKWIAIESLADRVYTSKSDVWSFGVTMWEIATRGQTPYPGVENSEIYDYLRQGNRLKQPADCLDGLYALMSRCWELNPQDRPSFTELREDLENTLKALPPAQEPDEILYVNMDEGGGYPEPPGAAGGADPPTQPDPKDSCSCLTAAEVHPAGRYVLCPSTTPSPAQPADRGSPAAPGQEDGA
value.kind: pIC50
# reply with the number alone; pIC50 is -log10 of concentration in mol/L

**Q:** So what pIC50 did `CC(C)(O)COc1ccc2c(Oc3ccc(Nc4nccc5[nH]cc(-c6ccc(F)cc6)c(=O)c45)cc3F)ccnc2c1` get with Axl kinase (Homo sapiens (Human))?
**A:** 7.80

###

# key: entry, value: clearance
# measurement.protocol: In vivo pharmacokinetic study in rats
# condition.details: rat, plasma, iv, 1 mg/kg i.v.
// return numeric value only (unit: mL/min/kg, not printed)

[[record]]
compound = "CC(C)(O)COc1ccc2c(Oc3ccc(Nc4nccc5[nH]cc(-c6ccc(F)cc6)c(=O)c45)cc3F)ccnc2c1 [Example 4]"
test_value = 0.5


**Q:** I have this compound here, O=c1c(-c2ccc(F)cc2)c[nH]c2ccnc(Nc3ccc(Oc4ccnc5cc(OCCO)ccc45)c(F)c3)c12 [Comparative compound C, reference compound] , and I need its recorded clearance.
**A:** 4.83
